- TEST_TARGET: HLA-B*57:01fos (Homo sapiens, UniProt P01889, D201E/D98Y/E176V/E187L/E204Q/E69M/E70A/G107R/I90N/K202T/L105A/L119I/N104I/N87E/Q89R/Q94S/R106L/R155S/R180L/R86G/S101N/S121V/S35A/S48A/T118I/V36M/Y140S/Y91M)
- Construct: Fos leucine zipper (C); made in house
- ASSAY_PROCEDURE: Fluorescence polarisation association rate measurements
- Assay type: binding
- CONDITION_INFO: 60 µM abacavir, fluorescence polarisation, 25°C
MEASUREMENT_KIND: Effect of abacavir on binding of fluorescent peptide to HLA-B*57:01fos

>>> result("VTKKTYEIW [non-labelled canonical HLA-B*57:01 ligand]")
"enhanced the binding"
>>> result("ITTKAISRW [canonical peptide ligand of HLA-B*57:01]")
"enhanced the binding"

----------
- TEST_TARGET: HLA-B*57:01 (Homo sapiens, UniProt P01889, D201E/D98Y/E176V/E187L/E204Q/E69M/E70A/G107R/I90N/K202T/L105A/L119I/N104I/N87E/Q89R/Q94S/R106L/R155S/R180L/R86G/S101N/S121V/S35A/S48A/T118I/V36M/Y140S/Y91M)
- ASSAY_PROCEDURE: LC-MRM-MS quantitation of HLA ligands and co-purified abacavir from abacavir treated C1R.B*57:01 cells
- Format: cell-based
- CONDITION_INFO: linear regression of LC-MRM-MS peptide abundance over abacavir treatment time
Assign class 1 whenever Linear regression slope does not fall below 0.01; assign class 0 whenever it does.

>>> label("MTAGVDGHSW")
"class 0"
>>> label("RVAQLEQVYI")
"class 1"
>>> label("TALPLLKQF")
"class 0"
>>> label("LSSPVTKSF")
"class 1"
>>> label("HTIQIRQDW [HLA-B*57:01 ligand]")
"class 1"
>>> label("KTFKDVGNLL [non-labelled HLA-B*57:01 ligand]")
"class 1"
>>> label("VSVKDIQAHL")
"class 1"
>>> label("ASSSQIIHI")
"class 1"
>>> label("KAIDYIRFL")
"class 0"

----------
- TEST_TARGET: HLA-B*57:01 (Homo sapiens, UniProt P01889, D201E/D98Y/E176V/E187L/E204Q/E69M/E70A/G107R/I90N/K202T/L105A/L119I/N104I/N87E/Q89R/Q94S/R106L/R155S/R180L/R86G/S101N/S121V/S35A/S48A/T118I/V36M/Y140S/Y91M)
- ASSAY_PROCEDURE: LC-MRM-MS quantitation of HLA ligands and co-purified abacavir from abacavir treated C1R.B*57:01 cells
- Format: cell-based
- CONDITION_INFO: linear regression of LC-MRM-MS peptide abundance over abacavir treatment time
MEASUREMENT_KIND: Linear regression slope

>>> result("ASAGNLKPVW")
0.0136
>>> result("KTAGYPNVNI")
0.0509
>>> result("VSAKEKYYVW")
-0.0125
>>> result("SSAEVKVTI")
0.0466
>>> result("LTSELITHI [HLA-B*57:01 ligand derived from MX1]")
0.0325
>>> result("LSSDINVRSW")
-0.0197
>>> result("SAAYLPRMW")
-0.0194
>>> result("HSMSDPGVSY")
0.0044
>>> result("KVFKLQTSL [non-labelled HLA-B*57:01 ligand]")
0.0380
>>> result("RVLPPSHRVTW")
0.0197
>>> result("VTKKTYEIW [non-labelled canonical HLA-B*57:01 ligand]")
0.0161
>>> result("ILDPHVVLL")
0.0062
>>> result("TSLKSRVTI [non-labelled HLA-B*57:01 ligand]")
0.0267
>>> result("FSHRIYVAY")
0.0098
>>> result("LTTKLTNTNI [non-labelled HLA-B*57:01 ligand]")
0.0544
>>> result("ASAIIIQRW")
0.0134
>>> result("KVVDVVRNL [HLA-B*57:01 ligand derived from MX1]")
-0.0432
>>> result("FVKKLEHSW")
0.0023
>>> result("KTIKLWNTL [HLA-B*57:01 ligand derived from RACK1]")
0.0224
>>> result("VTYPAKAKGTFI")
0.0340
>>> result("IYDKFIAQL")
-0.0106

----------
- TEST_TARGET: HLA-B*57:01 (Homo sapiens, UniProt P01889, D201E/D98Y/E176V/E187L/E204Q/E69M/E70A/G107R/I90N/K202T/L105A/L119I/N104I/N87E/Q89R/Q94S/R106L/R155S/R180L/R86G/S101N/S121V/S35A/S48A/T118I/V36M/Y140S/Y91M)
- ASSAY_PROCEDURE: LC-MRM-MS quantitation of HLA ligands and co-purified abacavir from abacavir treated C1R.B*57:01 cells
- Assay type: cell-based
- CONDITION_INFO: linear regression of LC-MRM-MS peptide abundance over abacavir treatment time
MEASUREMENT_KIND: Linear regression slope

>>> numeric_value("KSYELPDGQVI")
0.0297
>>> numeric_value("ISIHVGQAGVQI")
0.0259
>>> numeric_value("GSFGKVFLV")
0.0515
>>> numeric_value("LSKPNPPSL [HLA-B*57:01 ligand]")
-0.0172
